molecular target: human cathepsin K (UniProt P43236, Y175D/V274L, species not given); assay: Cathepsin K Assay; format: biochemical; conditions: IP from dose response curve; Z-Leu-Arg-AMC substrate, pH 5.5; read-out: hrbCat K (IP (nM))
experimental endpoint: IC50
Field: value (include unit after the number)

INSERT INTO measurements (molecule, result) VALUES
  ('CN=S1(=O)CCN(c2ccc(-c3cn(-c4ncccc4F)nc3[C@@H]3CC[C@H](F)C[C@H]3C(=O)NC3(C#N)CC3)cc2)CC1 [Example 53]', '6.54 nM'),
  ('N#CC1(NC(=O)[C@@H]2CCCC[C@H]2c2nn(-c3ccc(C(O)C(F)(F)F)cc3)cc2-c2ccc(N3CCS(=O)(=O)CC3)cc2)CC1 (mixture of isomers) [Example 113]', '0.88 nM');

# per-item lookup of IC50; items listed below
1. N#CC1(NC(=O)[C@@H]2CC(F)(F)CC[C@H]2c2nn(-c3ccc(F)cc3)c(CO)c2-c2ccc(N3CCS(=O)(=O)CC3)cc2)CC1 [Example 11]
2. N#CC1(NC(=O)[C@@H]2CCCC[C@H]2c2nn(-c3cnc(O)nc3)cc2-c2ccc(N3CCS(=O)(=O)CC3)cc2)CC1 [Example 170]
3. CN=S1(=O)CCN(c2ccc(-c3cn(-c4ncccc4F)nc3[C@@H]3CC[C@H](F)C[C@H]3C(=O)N[C@@H](C)C#N)cc2)CC1 [Example 54]
4. N#Cc1cc(Cl)ccc1-n1cc(-c2ccc(N3CCS(=O)(=O)CC3)cc2)c([C@@H]2CCCC[C@H]2C(=O)NC2(C#N)CC2)n1 [Example 105]

1: 1.41 nM; 2: 1.88 nM; 3: 7.89 nM; 4: 3.23 nM

Where do the numbers come from? From patent US9656990B2.
